Test system: Rattus norvegicus
experimental_details: Hypotensive activity in normotensive Wistar rat assessed as decrease in diastolic blood pressure at 2.5 to 10 mg/kg, iv after 1 min measured up to 60 mins
Assay type: organism-based, Artery
Set-up: dose 2.5-10 mg/kg, route intravenous
condition_context: in vivo
assay_metric: Activity

{"compound": "COC(=O)CN1C(=O)N(CC(O)CN2CCN(c3ccccc3OC)CC2)C(c2ccccc2)(c2ccccc2)C1=O.Cl (racemic)", "Activity": "Non-toxic"}
{"compound": "COC(=O)CN1C(=O)N(CCCCN2CCN(c3ccccc3OC)CC2)C(c2ccccc2)(c2ccccc2)C1=O.Cl", "Activity": "Non-toxic"}
{"compound": "COC(=O)CN1C(=O)N(CC(O)CN2CCN(c3ccccc3Cl)CC2)C(c2ccccc2)(c2ccccc2)C1=O.Cl (racemic)", "Activity": "Non-toxic"}
{"compound": "CN1C(=O)N(CC(O)CN2CCN(c3ccccc3F)CC2)C(c2ccccc2)(c2ccccc2)C1=O.Cl (racemic)", "Activity": "Non-toxic"}
{"compound": "COC(=O)CN1C(=O)N(CC(O)CN2CCN(c3ccccc3)CC2)C(c2ccccc2)(c2ccccc2)C1=O.Cl (racemic)", "Activity": "Non-toxic"}

Now look at this one.
Asked: API: value(readout=Activity, system=Rattus norvegicus) for record COc1ccccc1N1CCN(CCCCN2C(=O)N(C)C(=O)C2(c2ccccc2)c2ccccc2)CC1.Cl
Given back: Toxic

----------
test_target: Adrenergic receptor alpha-1 (Rattus norvegicus, UniProt P15823+P23944+P43140)
Sequence (P15823 whole entry): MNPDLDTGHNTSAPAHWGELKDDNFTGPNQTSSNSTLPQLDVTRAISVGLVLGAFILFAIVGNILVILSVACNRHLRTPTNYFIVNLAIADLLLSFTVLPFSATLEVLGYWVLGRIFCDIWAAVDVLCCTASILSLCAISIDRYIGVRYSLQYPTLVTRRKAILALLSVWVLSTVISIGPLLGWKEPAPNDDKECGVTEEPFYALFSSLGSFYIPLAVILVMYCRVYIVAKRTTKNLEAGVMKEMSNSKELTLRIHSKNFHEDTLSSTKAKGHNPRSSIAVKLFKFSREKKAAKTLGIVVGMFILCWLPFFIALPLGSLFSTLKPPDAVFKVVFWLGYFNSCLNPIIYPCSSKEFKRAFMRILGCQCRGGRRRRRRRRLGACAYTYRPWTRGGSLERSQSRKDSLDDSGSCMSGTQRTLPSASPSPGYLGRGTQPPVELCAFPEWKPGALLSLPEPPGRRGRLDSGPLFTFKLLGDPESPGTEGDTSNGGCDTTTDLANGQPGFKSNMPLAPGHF
Sequence (P23944 whole entry): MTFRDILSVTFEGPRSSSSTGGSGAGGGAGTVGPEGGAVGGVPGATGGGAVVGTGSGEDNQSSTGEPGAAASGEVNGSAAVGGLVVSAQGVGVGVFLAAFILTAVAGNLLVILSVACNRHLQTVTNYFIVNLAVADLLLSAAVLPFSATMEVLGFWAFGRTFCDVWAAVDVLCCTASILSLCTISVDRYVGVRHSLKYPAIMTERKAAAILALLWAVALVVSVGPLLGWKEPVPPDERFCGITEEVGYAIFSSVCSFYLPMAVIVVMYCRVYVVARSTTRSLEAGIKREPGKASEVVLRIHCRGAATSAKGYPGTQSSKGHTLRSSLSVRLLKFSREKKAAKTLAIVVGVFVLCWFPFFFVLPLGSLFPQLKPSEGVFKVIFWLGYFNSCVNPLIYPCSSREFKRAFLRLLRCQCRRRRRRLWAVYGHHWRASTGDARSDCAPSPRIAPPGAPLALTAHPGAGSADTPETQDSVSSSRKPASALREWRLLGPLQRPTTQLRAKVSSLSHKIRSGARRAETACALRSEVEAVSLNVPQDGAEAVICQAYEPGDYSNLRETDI
Sequence (P43140 whole entry): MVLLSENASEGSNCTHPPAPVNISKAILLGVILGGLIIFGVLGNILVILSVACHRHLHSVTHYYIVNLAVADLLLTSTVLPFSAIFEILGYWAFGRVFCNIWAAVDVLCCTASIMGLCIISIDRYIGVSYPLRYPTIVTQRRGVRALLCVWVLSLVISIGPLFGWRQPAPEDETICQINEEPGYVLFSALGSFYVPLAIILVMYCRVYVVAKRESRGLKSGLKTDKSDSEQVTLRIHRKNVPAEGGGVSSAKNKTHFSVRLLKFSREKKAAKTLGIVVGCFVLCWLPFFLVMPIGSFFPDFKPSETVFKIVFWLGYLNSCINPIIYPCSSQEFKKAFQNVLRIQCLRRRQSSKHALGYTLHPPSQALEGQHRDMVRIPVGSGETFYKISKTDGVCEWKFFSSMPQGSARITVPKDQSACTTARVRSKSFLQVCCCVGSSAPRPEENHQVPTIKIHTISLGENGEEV
experimental_details: Displacement of [3H]prazosin from alpha1 adrenoceptor in rat cerebral cortex after 30 mins by microbeta scintillation counting
Assay type: tissue-based
pKi overview
Could you keep your reply to the number by itself?

Study these solved cases before continuing.
{"compound": "CN1C(=O)N(CC(O)CN2CCN(c3ccccc3Cl)CC2)C(c2ccccc2)(c2ccccc2)C1=O.Cl (racemic)", "pKi": 6.32}
{"compound": "CN1C(=O)N(CC(O)CN2CCN(c3ccccc3)CC2)C(c2ccccc2)(c2ccccc2)C1=O.Cl (racemic)", "pKi": 6.27}
{"compound": "CCOc1ccccc1N1CCN(CCCN2C(=O)N(C(C)C(=O)OC)C(=O)C2(c2ccccc2)c2ccccc2)CC1.Cl (centres undefined)", "pKi": 6.4}

Now look at this one.
Asked: # pKi lookup, item CN1C(=O)N(CC(O)CN2CCN(c3ccccc3F)CC2)C(c2ccccc2)(c2ccccc2)C1=O.Cl (racemic)
Given back: 6.25
